Reported MIC, Proteus mirabilis.

CC(C)C[C@H](NC(=O)[C@H](C)NC(=O)CNC(=O)[C@H](CC(C)C)NC(=O)[C@@H](N)Cc1ccccc1)C(=O)N[C@@H](Cc1ccccc1)C(=O)N[C@@H](Cc1c[nH]c2ccccc12)C(=O)N[C@H](C(=O)N[C@@H](C)C(=O)N[C@@H](CO)C(=O)N[C@@H](CCCCN)C(=O)O)C(C)C [FLGALFWVASK]: ≥ 161 µM

Next, consider the following molecule.
Name the recorded MIC of the molecule listed here: CC(C)C[C@H](NC(=O)[C@H](C)NC(=O)CNC(=O)[C@H](CC(C)C)NC(=O)[C@@H](N)Cc1c[nH]c2ccccc12)C(=O)N[C@@H](Cc1ccccc1)C(=O)N[C@@H](CCCCN)C(=O)N[C@H](C(=O)N[C@@H](C)C(=O)N[C@@H](CO)C(=O)N[C@@H](CCCCN)C(=O)O)C(C)C [WLGALFKVASK]
≥ 164 µM

----------
# Test system: Pseudomonas aeruginosa
# METHOD_NOTES: ≥ marks a high value that may be exact or a test limit, other limits are often not marked, values filed in µg/mL are converted to µM
ASSAY_ENDPOINT: MIC (µM)
Expressed in µM, but write only the number.

CC(C)C[C@H](NC(=O)[C@@H](NC(=O)[C@H](CCCCN)NC(=O)[C@H](CO)NC(=O)[C@H](C)NC(=O)[C@@H](NC(=O)[C@H](CCCCN)NC(=O)[C@H](Cc1ccccc1)NC(=O)[C@H](CC(C)C)NC(=O)[C@H](C)NC(=O)CNC(=O)[C@H](CC(C)C)NC(=O)[C@H](C)N)C(C)C)C(C)C)C(=O)O: 152

Please report the measured MIC for CC[C@H](C)[C@H](NC(=O)[C@@H](NC(=O)[C@@H]1CCCN1C(=O)[C@@H](NC(=O)[C@@H]1CCCN1C(=O)[C@@H](N)CCCCN)C(C)C)[C@@H](C)CC)C(=O)N[C@@H](Cc1ccc(O)cc1)C(=O)N[C@H]1CSSC[C@@H](C(=O)N[C@@H](CCC(N)=O)C(=O)N[C@@H](CCCN=C(N)N)C(=O)N[C@@H](CCSC)C(=O)O)NC(=O)[C@H](CCCCN)NC(=O)CNC(=O)[C@H]([C@@H](C)O)NC(=O)[C@H](CCCN=C(N)N)NC(=O)[C@H](CCCN=C(N)N)NC(=O)[C@H](CC(N)=O)NC1=O
28.3

Read the entry CC[C@H](C)[C@H](NC(=O)[C@@H]1CCCN1C(=O)[C@H](CC(C)C)NC(=O)[C@@H](N)Cc1ccccc1)C(=O)N[C@H](C(=O)NCC(=O)N[C@@H](CCCCN)C(=O)N[C@@H](CC(C)C)C(=O)N[C@@H](CC(C)C)C(=O)N[C@@H](CO)C(=O)NCC(=O)N[C@@H](CC(C)C)C(=O)N[C@@H](CO)C(=O)NCC(=O)N[C@@H](CC(C)C)C(=O)N[C@@H](CO)C(N)=O)C(C)C and write its reported MIC.
1.56

----------
# System: Escherichia coli W160-37
ASSAY_ENDPOINT: MIC (µM)
// return numeric value only (unit: µM, not printed)

Determine its reported MIC: CC[C@H](C)[C@H](NC(=O)[C@H](CC(C)C)NC(=O)[C@H](C)NC(=O)[C@@H]1CCCN1C(=O)[C@H](CC(C)C)NC(=O)CN)C(=O)N[C@@H](CO)C(=O)N[C@@H](Cc1c[nH]c2ccccc12)C(=O)N[C@H](C(=O)N[C@@H](CCCCN)C(=O)N[C@@H](CCCN=C(N)N)C(=O)N[C@@H](CCCCN)C(=O)N[C@@H](CCCN=C(N)N)C(=O)N[C@@H](CCC(N)=O)C(=O)N[C@@H](CCC(N)=O)C(=O)NCC(N)=O)[C@@H](C)CC
21.4
